The measurements presented in this section are drawn from the supplement of paper PMC10849652.

# log2 fold change listing for each entry below
molecular target: ZDHHC17 (UniProt Q8IUH5); test: log2 fold change, soluble protein after heating vs DMSO (PISA); higher = thermal stabilisation; K562 cells, 10 uM, 30 min; active = over 0.2 and 3.5 SD of the protein, either way, in both replicates (recomputed)
Sequence (Q8IUH5 whole entry, looked up): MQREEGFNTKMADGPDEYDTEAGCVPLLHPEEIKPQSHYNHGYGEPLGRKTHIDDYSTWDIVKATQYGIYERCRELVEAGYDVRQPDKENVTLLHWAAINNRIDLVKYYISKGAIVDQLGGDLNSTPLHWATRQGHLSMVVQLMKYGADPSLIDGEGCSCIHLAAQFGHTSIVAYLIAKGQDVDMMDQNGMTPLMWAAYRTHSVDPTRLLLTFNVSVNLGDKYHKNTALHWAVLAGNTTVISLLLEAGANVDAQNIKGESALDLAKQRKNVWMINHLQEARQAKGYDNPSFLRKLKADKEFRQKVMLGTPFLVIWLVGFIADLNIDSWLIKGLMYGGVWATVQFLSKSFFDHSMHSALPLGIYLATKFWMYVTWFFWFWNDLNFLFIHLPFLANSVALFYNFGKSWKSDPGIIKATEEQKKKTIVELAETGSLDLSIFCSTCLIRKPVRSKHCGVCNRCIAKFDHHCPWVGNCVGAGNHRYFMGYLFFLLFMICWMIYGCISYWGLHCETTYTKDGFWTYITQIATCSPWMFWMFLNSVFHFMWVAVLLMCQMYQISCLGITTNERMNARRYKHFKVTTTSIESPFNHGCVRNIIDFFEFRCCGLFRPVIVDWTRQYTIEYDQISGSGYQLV
Of roughly 7,900 targets only a part is listed; those with a hit were picked by preference. About 0.6% of all pairs of compound and target were hits.
API note: the answer field is a bare number with no unit suffix.

{"compound": "Cc1cccc(-c2[nH]c(C(C)(C)C)nc2-c2ccc3nccnc3c2)n1", "measurement.label": "log2 fold change", "measured": -0.095}

Which measured log2 fold change value corresponds to c1cn2cc(-c3ccc4cn[nH]c4c3)nc(Nc3ccc(N4CCOCC4)cc3)c2n1 ?
0.059

Which measured log2 fold change value corresponds to CN1CCN(c2nc(C3=C(c4c[nH]c5ccccc45)C(=O)NC3=O)c3ccccc3n2)CC1 ?
0.099

Which measured log2 fold change value corresponds to COc1ccc(Cn2ccc3ccc(C(=O)NO)cc32)cc1 ?
0.137

Which measured log2 fold change value corresponds to Cn1c2cc(S(C)=O)sc2c2cnn(Cc3cccc(N)c3)c(=O)c21 (stereo not given) ?
-0.027
